# target.system: UniProt:P23975
# Sequence (P23975 whole entry): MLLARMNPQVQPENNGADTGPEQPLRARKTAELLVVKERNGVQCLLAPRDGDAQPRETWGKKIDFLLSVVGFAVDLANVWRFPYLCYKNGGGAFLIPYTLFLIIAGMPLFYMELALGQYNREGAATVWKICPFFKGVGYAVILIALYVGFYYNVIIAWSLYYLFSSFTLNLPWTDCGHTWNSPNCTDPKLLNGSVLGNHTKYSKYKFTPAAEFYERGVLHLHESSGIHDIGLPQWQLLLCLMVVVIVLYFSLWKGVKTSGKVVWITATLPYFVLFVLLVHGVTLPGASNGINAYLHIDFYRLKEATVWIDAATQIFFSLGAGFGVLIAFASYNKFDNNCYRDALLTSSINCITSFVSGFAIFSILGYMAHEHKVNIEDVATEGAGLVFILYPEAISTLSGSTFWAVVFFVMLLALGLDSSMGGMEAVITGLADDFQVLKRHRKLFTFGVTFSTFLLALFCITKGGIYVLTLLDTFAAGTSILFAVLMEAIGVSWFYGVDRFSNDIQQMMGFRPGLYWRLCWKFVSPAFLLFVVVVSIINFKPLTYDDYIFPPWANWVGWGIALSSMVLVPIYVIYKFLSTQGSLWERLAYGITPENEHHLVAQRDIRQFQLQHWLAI
# assay.overview: NE uptake: displacement of norephinephrine ligands in vitro (methods of Galli et al.)
# Type: binding
# reported.conditions: NE Uptake, Uptake Profile (IC50, nM)
Documented IC50 across a set of compounds
reported.endpoint: IC50

[[record]]
compound = "OC(CN1CCCC(COc2ccc(C(F)(F)F)cc2)C1)c1c[nH]c2ccc(Cl)cc12 (centres unmarked)"
reported_endpoint = "IC50"
value = "> 1000 nM"

[[record]]
compound = "OC(CN1CCCC(COc2ccc(C(F)(F)F)cc2)C1)C1(c2ccc(Cl)cc2)CCC1 (centres unmarked)"
reported_endpoint = "IC50"
value = "< 10 nM"

[[record]]
compound = "OC1CCCN(CC2(c3ccc(Cl)cc3)CCC2)C1 (centres unmarked)"
reported_endpoint = "IC50"
value = "< 1000 nM"

[[record]]
compound = "OC(CN1CCCC(COc2ccc(OC(F)(F)F)cc2)C1)C1(c2ccc(Cl)cc2)CCC1 (centres unmarked)"
reported_endpoint = "IC50"
value = "< 100 nM"

[[record]]
compound = "OC(CN1CCCC(COc2ccc(C(F)(F)F)cc2)C1)C1(c2ccc3c(c2)OCO3)CCC1 (centres unmarked)"
reported_endpoint = "IC50"
value = "< 100 nM"

[[record]]
compound = "FC(F)(F)c1ccc(OCC2CCCN(CC3(c4ccc(Cl)cc4)CCC3)C2)cc1 (centres unmarked)"
reported_endpoint = "IC50"
value = "> 1000 nM"

[[record]]
compound = "OC(CN1CCCC(CCc2ccc(C(F)(F)F)cc2)C1)C1(c2ccc(Cl)cc2)CCC1 (single isomer, unassigned) [compound 194]"
reported_endpoint = "IC50"
value = "< 100 nM"

[[record]]
compound = "FC(F)(F)c1ccc(OC[C@@H]2CCCN(CC3(c4ccc(Cl)cc4)CCC3)C2)cc1"
reported_endpoint = "IC50"
value = "< 1000 nM"

[[record]]
compound = "Fc1ccc(OCC2CCCN(CC3(c4ccc(Cl)cc4)CCC3)C2)cc1 (centres unmarked)"
reported_endpoint = "IC50"
value = "< 1000 nM"

[[record]]
compound = "Clc1ccc(C2(CN3CCC[C@@H](COc4ccc5c(c4)OCO5)C3)CCC2)cc1"
reported_endpoint = "IC50"
value = "< 1000 nM"

[[record]]
compound = "FC(F)(F)c1ccc(OCC2CN(CC3(c4ccc(Cl)cc4)CCC3)C2)cc1"
reported_endpoint = "IC50"
value = "< 100 nM"

[[record]]
compound = "OC(CN1CCCC(CCc2ccc(C(F)(F)F)cc2)C1)c1ccc(Cl)cc1 (single isomer, unassigned) [compound 154]"
reported_endpoint = "IC50"
value = "< 100 nM"

[[record]]
compound = "FC(F)(F)c1ccc(OCC2CCCN(CC3COc4ccccc4O3)C2)cc1 (single isomer, unassigned) [compound 179]"
reported_endpoint = "IC50"
value = "< 1000 nM"

[[record]]
compound = "O=C(CN1CCCC(CCc2ccc(C(F)(F)F)cc2)C1)C1(c2ccc(Cl)cc2)CCC1 (centres unmarked)"
reported_endpoint = "IC50"
value = "> 1000 nM"

[[record]]
compound = "FC(F)(F)c1ccc(COC[C@H]2CCCN(CC3(c4ccc(Cl)cc4)CCC3)C2)cc1"
reported_endpoint = "IC50"
value = "< 100 nM"

[[record]]
compound = "FC(F)(F)c1ccc(OCC2CCCN(CCc3ccc(-c4ccccc4)cc3)C2)cc1 (centres unmarked)"
reported_endpoint = "IC50"
value = "< 1000 nM"

[[record]]
compound = "CO[C@H](CN1CCC[C@@H](COc2ccc(C(F)(F)F)cc2)C1)C1(c2ccc(Cl)cc2)CCC1"
reported_endpoint = "IC50"
value = "< 1000 nM"

[[record]]
compound = "OC(CN1CCCC(COc2ccc(C(F)(F)F)cc2)C1)C1(c2ccc(C(F)(F)F)cc2)CCC1 (centres unmarked)"
reported_endpoint = "IC50"
value = "< 100 nM"

[[record]]
compound = "CC(CN1CCCC(COc2ccc(C(F)(F)F)cc2)C1)C(O)c1ccc(Cl)cc1 (centres unmarked)"
reported_endpoint = "IC50"
value = "> 1000 nM"

[[record]]
compound = "FC(F)(F)c1ccc(OCCC2CCCN(CC3(c4ccc(Cl)cc4)CCC3)C2)cc1 (centres unmarked)"
reported_endpoint = "IC50"
value = "< 100 nM"

[[record]]
compound = "CN(C)CC(Oc1ccc(C(F)(F)F)cc1)C1CCCN(CC2(c3ccc(Cl)cc3)CCC2)C1 (racemic) [compound 175]"
reported_endpoint = "IC50"
value = "> 1000 nM"

[[record]]
compound = "FC(F)(F)c1ccc(COC[C@@H]2CCCN(CC3(c4ccc(Cl)cc4)CCC3)C2)cc1"
reported_endpoint = "IC50"
value = "< 1000 nM"

[[record]]
compound = "FC(F)(F)c1ccc(SCC2CCCN(CC3(c4ccc(Cl)cc4)CCC3)C2)cc1 (centres unmarked)"
reported_endpoint = "IC50"
value = "< 1000 nM"

[[record]]
compound = "OC(CN1CCCC(COc2ccc(OC(F)(F)F)cc2)C1)C1(c2ccc(OC(F)(F)F)cc2)CCC1 (centres unmarked)"
reported_endpoint = "IC50"
value = "< 1000 nM"

[[record]]
compound = "FC(F)(F)c1ccc(OCC2CCCCN(CC3(c4ccc(Cl)cc4)CCC3)C2)cc1 (centres unmarked)"
reported_endpoint = "IC50"
value = "< 1000 nM"

[[record]]
compound = "FC(F)(F)c1ccc(OCC2CCCN(CCc3c[nH]c4ccccc34)C2)cc1 (centres unmarked)"
reported_endpoint = "IC50"
value = "< 1000 nM"

[[record]]
compound = "O=C(CN1CCC[C@@H](COc2ccc(C(F)(F)F)cc2)C1)C1(c2ccc(Cl)cc2)CCC1"
reported_endpoint = "IC50"
value = "< 1000 nM"

[[record]]
compound = "FC(F)(F)c1ccc(OCC2CN(CC3(c4ccc(Cl)cc4)CCC3)CCO2)cc1 (centres unmarked)"
reported_endpoint = "IC50"
value = "> 1000 nM"

[[record]]
compound = "FC(F)(F)c1ccc(OC2CCCN(CC3(c4ccc(Cl)cc4)CCC3)C2)cc1 (centres unmarked)"
reported_endpoint = "IC50"
value = "> 1000 nM"

[[record]]
compound = "FC(F)(F)c1ccc(OCC2CCCN(CC3COc4ccccc4O3)C2)cc1 (single isomer, unassigned) [compound 178]"
reported_endpoint = "IC50"
value = "< 1000 nM"

[[record]]
compound = "CN(C)CC(Oc1ccc(C(F)(F)F)cc1)C1CCCN(C(=O)C2(c3ccc(Cl)cc3)CCC2)C1 (racemic)"
reported_endpoint = "IC50"
value = "> 1000 nM"

[[record]]
compound = "OC(CN1CCCC(COc2ccc(C(F)(F)F)cc2)C1)c1ccc(Cl)cc1 (centres unmarked)"
reported_endpoint = "IC50"
value = "< 1000 nM"

